Assay: in vitro
Conditions: human
For each record, write down the corresponding CC50.

Worked cases, CC50 given:
>  <molecule>
CC(C)c1ccc2c(c1)OC1(O)c3cccc(N)c3C(=O)C21NC(=O)c1cnccn1 (centres unmarked)

>  <CC50>
> 10 µg/mL

$$$$
>  <molecule>
CC(C)c1ccc2c(c1)OC1(O)c3cccc(N)c3C(=O)C21NC(=O)c1cc(C(F)(F)F)ccn1 (centres unmarked)

>  <CC50>
> 10 µg/mL

$$$$
>  <molecule>
COc1ccccc1C(=O)NC12C(=O)c3c(N)cccc3C1(O)Oc1cc(C(C)C)ccc12 (centres unmarked)

>  <CC50>
> 10 µg/mL

$$$$

Batch request: CC50 per item, same order as input.
1. Cc1ccccc1C(=O)NC12C(=O)c3c(N)cccc3C1(O)Oc1cc(C(C)C)ccc12 (centres unmarked)
2. CC(C)c1ccc2c(c1)OC1(O)c3cccc(N)c3C(=O)C21NC(=O)c1nccn1C (centres unmarked)
3. CC(C)c1cc(C(C)C)c2c(c1)C1(O)C(=O)c3c(N)cccc3C1(O)O2 (centres unmarked)

Data returned:
1. > 10 µg/mL
2. 3.53 µg/mL
3. 28.5 µg/mL

Batch request: CC50 per item, same order as input.
1. CCCCCCCC(=O)N[C@@]12C(=O)c3c(N)cccc3[C@]1(O)Oc1cc(C(C)C)ccc12
2. CC(C)c1ccc2c(c1)OC1(O)c3cccc(N)c3C(=O)C21NC(=O)c1ncccc1O (centres unmarked)

Data returned:
1: 6.23 µg/mL; 2: > 10 µg/mL

====

For each record, write down the corresponding CC50.
Test: in vitro
Conditions: human

>  <compound>
Cc1c(C(=O)NC23C(=O)c4c(N)cccc4C2(O)Oc2cc(C(C)C)ccc23)cnc2ccnn12 (stereo not shown)

>  <CC50>
> 10 µg/mL

$$$$

Batch request: CC50 per item, same order as input.
1. CC(C)c1ccc2c(c1)OC1(O)c3ccccc3C(=O)C21NC(=O)c1cc(=O)[nH]c(=O)[nH]1 (stereo not shown)
2. CC(C)c1ccc2c(c1)OC1(O)c3cccc(N)c3C(=O)C21NC(=O)C(=O)c1cccs1 (stereo not shown)
3. CCC(=O)N[C@@]12C(=O)c3c(N)cccc3[C@]1(OC(=O)CC)Oc1cc(C(C)C)ccc12

Data returned:
1: > 10 µg/mL; 2: > 10 µg/mL; 3: 58.1 µg/mL

====

For each record, write down the corresponding CC50.
Assay: in vitro
Conditions: human

>  <compound>
CC(=O)O[C@@]12Oc3cc(C(C)C)ccc3[C@]1(OC(C)=O)C(=O)c1c(N)cccc12

>  <result>
15.4 µg/mL

$$$$

Batch request: CC50 per item, same order as input.
1. CC(C)c1ccc2c(c1)OC1(O)c3cccc(N)c3C(=O)C21NC(=O)c1ccc(C#N)cc1 (stereo not shown)
2. CC(C)c1ccc2c(c1)OC1(O)c3cccc(N)c3C(=O)C21NC(=O)c1cnc2ccccc2c1 (stereo not shown)
3. Cc1cc(C)n2ncc(C(=O)NC34C(=O)c5c(N)cccc5C3(O)Oc3cc(C(C)C)ccc34)c2n1 (stereo not shown)
4. CC(C)c1ccc2c(c1)OC1(O)c3cccc(N)c3C(=O)C21NC(=O)c1ccc2nnnn2c1 (stereo not shown)

Data returned:
1. > 10 µg/mL
2. > 10 µg/mL
3. > 10 µg/mL
4. > 10 µg/mL

Batch request: CC50 per item, same order as input.
1. CC(C)c1ccc2c(c1)OC1(O)c3cccc(N)c3C(=O)C21NC(=O)c1ccc2nccn2c1 (stereo not shown)
2. CC(C)c1ccc2c(c1)OC1(O)c3cccc(N)c3C(=O)C21NC(=O)/C=C/c1ccc(Cl)c(Cl)c1 (stereo not shown)
3. CC(C)c1ccc2c(c1)OC1(O)c3cccc(N)c3C(=O)C21NC(=O)c1cc2ccccc2n1C (stereo not shown)
4. CC(C)c1ccc2c(c1)OC1(O)c3cccc(N)c3C(=O)C21NC(=O)c1ccc(-c2ccccc2)cc1 (stereo not shown)
5. Cc1ccncc1C(=O)NC12C(=O)c3c(N)cccc3C1(O)Oc1cc(C(C)C)ccc12 (stereo not shown)
6. CC(C)c1ccc2c(c1)OC1(O)c3cccc(N)c3C(=O)C21NC(=O)c1ccnc2ccccc12 (stereo not shown)

Data returned:
["> 10 µg/mL", "> 10 µg/mL", "> 10 µg/mL", "> 10 µg/mL", "> 10 µg/mL", "> 10 µg/mL"]

Batch request: CC50 per item, same order as input.
1. CC(C)c1ccc2c(c1)OC1(O)c3ccccc3C(=O)C21NC(=O)c1cnn(-c2ccccc2)c1C(F)(F)F (stereo not shown)
2. CC(C)c1ccc2c(c1)OC1(O)c3ccccc3C(=O)C21NC(=O)c1cc2ccccc2[nH]1 (stereo not shown)
3. CC(C)c1ccc2c(c1)OC1(O)c3cccc(N)c3C(=O)C21NC(=O)c1cc(C(C)C)nc2c1cnn2C(C)C (stereo not shown)

Data returned:
["> 10 µg/mL", "> 10 µg/mL", "3.71 µg/mL"]

Batch request: CC50 per item, same order as input.
1. CCNC(=O)NC12C(=O)c3c(N)cccc3C1(O)Oc1cc(C(C)C)ccc12 (stereo not shown)
2. CC(C)c1ccc2c(c1)OC1(O)c3cccc(N)c3C(=O)C21NC(=O)c1c(Cl)cc(Cl)cc1Cl (stereo not shown)
3. CC(C)c1ccc2c(c1)OC1(O)c3cccc(N)c3C(=O)C21NC(=O)c1cncc(O)c1 (stereo not shown)
4. CC(C)c1ccc2c(c1)OC1(O)c3ccccc3C(=O)C21NC(=O)c1cccs1 (stereo not shown)
5. CC(C)c1ccc2c(c1)OC1(O)c3ccccc3C(=O)C21NC(=O)c1ccc(=O)oc1 (stereo not shown)
6. CCCCC(=O)NC12C(=O)c3c(N)cccc3C1(OC(=O)CCCC)Oc1cc(C(C)C)ccc12 (stereo not shown)
7. Cc1nc(C(=O)NC23C(=O)c4c(N)cccc4C2(O)Oc2cc(C(C)C)ccc23)c2ccccn12 (stereo not shown)
8. CC(=O)NC12C(=O)c3c(NC=O)cccc3C1(O)Oc1cc(C(C)C)ccc12 (stereo not shown)

Data returned:
["> 10 µg/mL", "> 10 µg/mL", "> 10 µg/mL", "17.9 µg/mL", "> 10 µg/mL", "24 µg/mL", "> 10 µg/mL", "> 10 µg/mL"]

====

Test system: Rhino 59
Assay: Multicycle CPE reduction assay, Rhino 59
Assay type: cell-based
Details: incubation at 37° C. in HeLa cells
pEC50: −log10 of the molar value.
quantity: pEC50

Data request: Look at this compound and give its reported pEC50. CC(=O)NC12C(=O)c3ccccc3C1(O)Oc1cc(C(C)C)ccc12 (stereo not shown)
Data returned: < 5.00

====

Test: in vitro
Conditions: human
quantity: CC50 (µg/mL)
One number for each entry, in µg/mL.

Worked cases, CC50 given:
>  <compound>
CC(C)c1ccc2c(c1)OC1(O)c3cccc(N)c3C(=O)C21NC(=O)c1ccc2ccccc2n1 (stereo not shown)

>  <quantity>
CC50

>  <quantitative result>
5.4

$$$$
>  <compound>
CC(C)c1ccc2c(c1)OC1(O)c3cccc(N)c3C(=O)C21NC(=O)C1CC1 (stereo not shown)

>  <quantity>
CC50

>  <quantitative result>
39.4

$$$$
>  <compound>
CCCCCC(=O)NC12C(=O)c3c(N)cccc3C1(OC(=O)CCCCC)Oc1cc(C(C)C)ccc12 (stereo not shown)

>  <quantity>
CC50

>  <quantitative result>
8.8

$$$$

Data request: Look at this compound and give its reported CC50. CC(C)c1ccc2c(c1)OC1(O)c3ccccc3C(=O)C21NC(=O)c1ccc2[nH]nnc2c1 (stereo not shown)
Data returned: 6.53

====

System: Rhino 15
Test: Multicycle CPE reduction assay, Rhino 15
Format: cell-based
Conditions: incubation at 37° C. in HeLa cells
quantity: pEC50
One number for each entry, as −log10 of the molar value.

>  <compound>
CC(C)c1ccc2c(c1)O[C@@]1(O)c3cccc(N)c3C(=O)[C@@]21O [Example 46]

>  <measurement target>
Rhino 15

>  <quantitative result>
5.55

$$$$

The record that follows has no pEC50 shown yet.
Data request: Observed pEC50 on Rhino 15 for CC(=O)NC12C(=O)c3ccccc3C1(O)Oc1cc(C(C)C)ccc12 (stereo not drawn) [Example 66] , please.
Data returned: 5.34

====

Assay: in vitro
Conditions: human, Rhino CC50
quantity: CC50

Data request: Look at this molecule and give its reported CC50. CC(C)c1ccc2c(c1)OC1(O)c3cccc(N)c3C(=O)C21NC(=O)CF (stereo not shown) [Example 193]
Data returned: > 10 µg/mL

====

Experiment: in vitro
Conditions: human, Picorana CC50
CC50 less than 10 µg/mL is met; CC50 greater than or equal to 10 µg/mL is not met.

Example entries begin here.
>  <compound>
CC(C)c1ccc2c(c1)OC1(O)c3cccc(N)c3C(=O)C21NC(=O)c1nccn1C (centres unmarked)

>  <class label>
met

$$$$
>  <compound>
COc1ccc2c(c1)C(=O)C1(O)c3ccc(C(C)C)cc3OC21O (centres unmarked)

>  <class label>
met

$$$$
>  <compound>
CC(C)c1ccc2c(c1)OC1(OC(=O)c3ccco3)c3ccccc3C(=O)C21O (centres unmarked)

>  <class label>
met

$$$$
>  <compound>
CC(=O)OC12C(=O)c3ccccc3C1(OC(C)=O)N(C(C)=O)c1cc(C)c(C)cc12 (centres unmarked)

>  <class label>
not met

$$$$
>  <compound>
CC(C)c1ccc2c(c1)OC1(O)c3cccc(N4CCC(O)CC4)c3C(=O)C21O (centres unmarked)

>  <class label>
not met

$$$$
>  <compound>
CCCCCCNC12C(=O)c3ccccc3C1(O)Oc1cc(C(C)C)ccc12 (centres unmarked)

>  <class label>
met

$$$$
>  <compound>
O=C1c2ccccc2C2(O)Oc3c(-c4ccccc4)cccc3C12O (centres unmarked)

>  <class label>
met

$$$$
>  <compound>
CC(C)(C)c1cccc2c1OC1(O)c3ccccc3C(=O)C21O (centres unmarked)

>  <class label>
not met

$$$$

Data request: Please indicate whether the reported CC50 of CC(C)NC(=O)NC12C(=O)c3c([N+](=O)[O-])cccc3C1(O)Oc1cc(C(C)C)ccc12 (centres unmarked) is strictly below 10 µg/mL.
Data returned: not met

Data request: Please indicate whether the reported CC50 of `CC(C)c1ccc2c(c1)O[C@@]1(O)c3cccc([N+](=O)[O-])c3C(=O)[C@@]21O` is strictly below 10 µg/mL.
Data returned: not met

Data request: Please indicate whether the reported CC50 of CC(C)c1ccc2c(c1)OC1(O)c3cccc(N)c3C(=O)C21NC(=O)c1cccc(Cl)c1 (centres unmarked) is strictly below 10 µg/mL.
Data returned: not met

Data request: Please indicate whether the reported CC50 of `CO[C@@]12C(=O)c3ccccc3[C@]1(O)Oc1cc(C(C)C)ccc12` is strictly below 10 µg/mL.
Data returned: met

Data request: Please indicate whether the reported CC50 of Cc1onc(-c2c(Cl)cccc2Cl)c1C(=O)NC12C(=O)c3ccccc3C1(O)Oc1cc(C(C)C)ccc12 (centres unmarked) is strictly below 10 µg/mL.
Data returned: not met

Data request: Please indicate whether the reported CC50 of CCCCCCCCCc1ccc2c(c1)C1(O)C(=O)c3ccccc3C1(O)O2 (centres unmarked) is strictly below 10 µg/mL.
Data returned: met

Data request: Please indicate whether the reported CC50 of CC(C)c1ccc2c(c1)OC1(O)c3ccccc3/C(=N\N)C21O (centres unmarked) is strictly below 10 µg/mL.
Data returned: met

Data request: Please indicate whether the reported CC50 of CC(C)C(=O)NC12C(=O)c3c(N)cccc3C1(O)Oc1cc(C(C)C)ccc12 (centres unmarked) is strictly below 10 µg/mL.
Data returned: not met
